TARGET DESC: Glucocorticoid receptor (Homo sapiens, UniProt P04150)
Sequence (P04150 whole entry): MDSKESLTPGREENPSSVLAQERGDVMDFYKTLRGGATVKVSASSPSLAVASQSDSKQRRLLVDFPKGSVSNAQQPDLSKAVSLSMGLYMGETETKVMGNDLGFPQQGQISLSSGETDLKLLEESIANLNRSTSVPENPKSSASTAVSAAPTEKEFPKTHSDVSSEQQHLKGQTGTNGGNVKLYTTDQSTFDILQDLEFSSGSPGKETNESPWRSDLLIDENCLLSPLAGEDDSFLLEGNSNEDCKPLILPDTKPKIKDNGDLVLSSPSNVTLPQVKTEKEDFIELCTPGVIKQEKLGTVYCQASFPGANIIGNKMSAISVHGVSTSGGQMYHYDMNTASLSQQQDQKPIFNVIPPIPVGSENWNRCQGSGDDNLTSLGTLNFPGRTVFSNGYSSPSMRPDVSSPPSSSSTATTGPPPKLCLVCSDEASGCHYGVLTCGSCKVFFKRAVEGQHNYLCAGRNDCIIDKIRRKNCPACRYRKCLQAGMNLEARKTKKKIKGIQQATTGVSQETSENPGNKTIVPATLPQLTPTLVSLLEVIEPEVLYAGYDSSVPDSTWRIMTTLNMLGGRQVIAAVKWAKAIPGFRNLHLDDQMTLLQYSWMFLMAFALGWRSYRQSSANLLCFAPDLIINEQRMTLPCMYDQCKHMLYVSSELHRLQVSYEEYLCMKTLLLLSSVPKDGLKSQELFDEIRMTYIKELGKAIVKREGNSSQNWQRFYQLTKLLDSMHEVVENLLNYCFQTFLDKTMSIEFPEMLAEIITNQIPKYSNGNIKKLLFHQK
TEST SUMMARY: Displacement of [3H]-dexamethasone from human recombinant glucocorticoid receptor after 18 hrs by liquid scintillation counting
QUANTITY: IC50 (µM)

COMPOUND STRING | TARGET DESC | UNIT OF MEASURE | READING
CCN(CC)c1cc2oc(=O)ccc2cc1-c1ccccc1 | Glucocorticoid receptor (Homo sapiens, UniProt P04150) | µM | 3.54
CCN(CC)c1cc2oc(=O)ccc2cc1-c1cccs1 | Glucocorticoid receptor (Homo sapiens, UniProt P04150) | µM | 4.96
